test system: DYRK2; settings: Compound Concentration (nM):1000;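 further: KINOMEscan scanMAX binding as percent activity remaining versus control; lower means stronger binding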
The following compounds are shown together with reported Percent Control values.
# value in %; strip the unit string

# example entries with known answers
| COMPOUND | VALUE UNITS | Percent Control |
| --- | --- | --- |
| COc1ccc2[nH]c3c4[nH]c5ccc(OC)cc5c4c4c(c3c2c1)C(=O)NC4=O [GW296115X] | % | 50 |
| COc1cc(C)c(N(C)C(=O)CN(C)C)cc1Nc1nc(Nc2cccc(F)c2C(N)=O)c2cc[nH]c2n1 [GSK2219385] | % | 100 |

Now consider the entry below.
Request: // lookup Percent Control for COc1ccc(COc2ccc(Cc3cnc(N)nc3N)cc2OC)cc1 [GW632580X]
Response: 81
